# Experimental target: mouse DLL3 on CHO-K1-mDLL3 cells (mouse) (UniProt O88516)
# Sequence (O88516 other isoform, or with tags, fused parts or gaps limits assumed): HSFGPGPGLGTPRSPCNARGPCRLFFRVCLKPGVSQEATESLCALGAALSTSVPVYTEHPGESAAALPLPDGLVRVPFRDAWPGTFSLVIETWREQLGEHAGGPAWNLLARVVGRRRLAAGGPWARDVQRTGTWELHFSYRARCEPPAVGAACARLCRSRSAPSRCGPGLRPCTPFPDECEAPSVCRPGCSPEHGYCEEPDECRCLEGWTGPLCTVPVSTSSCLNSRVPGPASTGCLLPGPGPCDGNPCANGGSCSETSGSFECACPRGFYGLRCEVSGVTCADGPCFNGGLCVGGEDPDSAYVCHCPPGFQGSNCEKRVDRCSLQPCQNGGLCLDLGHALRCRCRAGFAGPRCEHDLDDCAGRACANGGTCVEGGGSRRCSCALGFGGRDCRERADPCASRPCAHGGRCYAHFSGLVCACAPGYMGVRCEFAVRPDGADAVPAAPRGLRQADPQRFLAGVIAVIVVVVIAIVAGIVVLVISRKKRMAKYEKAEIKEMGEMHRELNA
# Protocol description: FACS, CHO-K1-mDLL3 cells, 0.0064 nM antibody
The following binders are listed with their measured MFI values.
State the answer as a number, implicitly in MFI.

Hab015VL4VH6a-hFc (scFv, part only; not given: scFv linker and human IgG1 Fc, V domains shown, not shown: another chain or arm of the molecule; a dimerising Fc or GST; small tags and cut ends) VL: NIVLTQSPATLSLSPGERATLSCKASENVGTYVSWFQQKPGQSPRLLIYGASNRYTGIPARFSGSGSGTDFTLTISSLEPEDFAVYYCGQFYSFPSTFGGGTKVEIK VH: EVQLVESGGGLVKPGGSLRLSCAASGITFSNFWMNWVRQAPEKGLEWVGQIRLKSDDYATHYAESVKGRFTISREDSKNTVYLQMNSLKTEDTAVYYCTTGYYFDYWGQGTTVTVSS
130

Okay, now this binder:
Looking up Hab015VL5VH1b-hFc (scFv, part only; not given: VL-VH linker and human IgG1 Fc, V domains shown, not shown: another chain or arm of the molecule; a dimerising Fc or GST; small tags and cut ends) VL: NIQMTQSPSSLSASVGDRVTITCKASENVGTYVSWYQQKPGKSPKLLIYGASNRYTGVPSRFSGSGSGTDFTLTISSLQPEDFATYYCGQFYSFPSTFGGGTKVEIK VH: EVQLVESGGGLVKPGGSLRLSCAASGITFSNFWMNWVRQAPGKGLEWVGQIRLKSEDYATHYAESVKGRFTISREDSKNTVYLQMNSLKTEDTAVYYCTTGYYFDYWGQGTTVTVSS , I found its MFI recorded as 131
